Target: HLA-B*08:01 (Homo sapiens, UniProt P01889, A93T/A95T/D138N/E176V/E187T/K202T/Q94N/R180D/S35A/V36M/Y33D/Y91F)
Test: REVEAL Epitope Discovery System in vitro MHC-peptide binding score
Design: key: % binding, normalized to positive control peptide set at 100%
Conditions: binding normalized to positive control peptide set at 100%, greater than 50 considered good or high affinity binding
METRIC_NAME: B*08:01 In Vitro Score

Some sequences with recorded B*08:01 In Vitro Score:
# RESIDUE_SEQUENCE, VALUE
rows = [
    ("IFWVKRGAK [9-mer variant junction peptide, R31A]", 2.20),
    ("IIFWVARGR [9-mer variant junction peptide, K28A]", 0.30),
    ("VAFIIFWVR [9-mer variant junction peptide, K28R]", 0.10),
    ("WVKRGHKKL [9-mer variant junction peptide, R31H]", 47.60),
    ("IIFWVKRGL [9-mer variant junction peptide, R31L]", 1.70),
    ("WVKRGNKKL [9-mer variant junction peptide, R31N]", 65.90),
    ("AFIIFWVHR [9-mer variant junction peptide, K28H]", 0.30),
    ("IFWVQRGNK [9-mer variant junction peptide, K28Q/R31N]", 0.10),
]

A = IFWVARGRK [9-mer variant junction peptide, K28A]
B = IFWVKRGSK [9-mer variant junction peptide, R31S]
C = WVKRGAKKL [9-mer variant junction peptide, R31A]
D = IIFWVKRGS [9-mer variant junction peptide, R31S]
E = WVKRGSKKL [9-mer variant junction peptide, R31S]
Problem: Arrange these 5 sequences in increasing order of B*08:01 In Vitro Score. Dear reader, please state the labels in the requested order.
Result: A, D, B, C, E

A = IFWVHRGRK [9-mer variant junction peptide, K28H]
B = WVARGRKKL [9-mer variant junction peptide, K28A]
Problem: Please let me know which one, A or B , has a lower measured B*08:01 In Vitro Score value. Which one? Tell me its label.
Result: A
(A: 0.10, B: 32.40)

1 = IFWVQRGRK [9-mer variant junction peptide, K28Q]
2 = IFWVKRGLK [9-mer variant junction peptide, R31L]
Problem: Which of the two items, 1 and 2 , has the greater recorded B*08:01 In Vitro Score? Which one? Tell me its label.
Result: 2
(2: 58.30, 1: 0.00)

1 = IIFWVHRGR [9-mer variant junction peptide, K28H]
2 = WVQRGNKKL [9-mer variant junction peptide, K28Q/R31N]
3 = IFWVSRGRK [9-mer variant junction peptide, K28S]
Problem: Arrange these 3 sequences in increasing order of B*08:01 In Vitro Score. Dear reader, please state the labels in the requested order.
Result: 3, 1, 2
(3: 0.00, 1: 0.20, 2: 32.00)

---

Molecular target: HLA-A*11:01 (Homo sapiens, UniProt P04439, A114D/D185E/E176A/F33Y/L180Q/S129P/T187R)
Test: REVEAL Epitope Discovery System in vitro MHC-peptide binding score
Design: key: % binding, normalized to positive control peptide set at 100%
Settings: binding normalized to positive control peptide set at 100%, greater than 50 considered good or high affinity binding
Protocol: Actual binding affinities for certain HLA class I alleles (A*02:01, A*03:01. A*11:01, and B*08:01) were assessed in vitro for exemplary overlapping 9 amino acid peptide sequences within a portion of the 26 amino acid junction region spanning the CD28 and 4-1BB junction. […] In addition, a series of overlapping 9-mer peptides of each of a number of different variants of this portion also were assessed, each variant containing a mutation or mutations in this region as described in Example 2. […]
METRIC_NAME: A*11:01 In Vitro Score

# RESIDUE_SEQUENCE, EXPERIMENTAL_SYSTEM, VALUE
rows = [
    ("IIFWVSRGR [9-mer variant junction peptide, K28S]", "HLA-A*11:01 (Homo sapiens, UniProt P04439, A114D/D185E/E176A/F33Y/L180Q/S129P/T187R)", 68.90),
    ("IFWVQRGRK [9-mer variant junction peptide, K28Q]", "HLA-A*11:01 (Homo sapiens, UniProt P04439, A114D/D185E/E176A/F33Y/L180Q/S129P/T187R)", 128.50),
    ("IFWVQRGNK [9-mer variant junction peptide, K28Q/R31N]", "HLA-A*11:01 (Homo sapiens, UniProt P04439, A114D/D185E/E176A/F33Y/L180Q/S129P/T187R)", 67.50),
]

A = WVQRGNKKS [9-mer variant junction peptide, mutation printed K28Q/L34S]
B = IFWVQRGAK [9-mer variant junction peptide, K28Q/R31A]
C = VAFIIFWVS [9-mer variant junction peptide, K28S]
Problem: Arrange these 3 sequences in increasing order of A*11:01 In Vitro Score. Dear reader, please state the labels in the requested order.
Result: A, C, B
(A: 5.00, C: 25.10, B: 61.30)

---

Biological target: HLA-A*03:01 (Homo sapiens, UniProt P04439)
Test: REVEAL Epitope Discovery System in vitro MHC-peptide binding score
Settings: positive control peptide set at 100%, greater than 50 = good or high affinity binding
METRIC_NAME: A*03:01 In Vitro

# RESIDUE_SEQUENCE, VALUE
measured = [
    ("WVARGRKKL [9-mer variant junction peptide, K28A]", 1.30),
    ("IIFWVKRGL [9-mer variant junction peptide, R31L]", 15.90),
    ("FIIFWVHRG [9-mer variant junction peptide, K28H]", 0.00),
]

a = WVQRGNKKL [9-mer variant junction peptide, K28Q/R31N]
b = IFWVHRGRK [9-mer variant junction peptide, K28H]
Problem: Which of the two items, a and b , has the greater recorded A*03:01 In Vitro? Which one? Tell me its label.
Result: b
(b: 37.80, a: 1.50)

1 = IIFWVHRGR [9-mer variant junction peptide, K28H]
2 = IIFWVARGR [9-mer variant junction peptide, K28A]
Problem: Which of the two items, 1 and 2 , has the greater recorded A*03:01 In Vitro? Which one? Tell me its label.
Result: 1
(1: 30.10, 2: 18.60)

---

Target: HLA-A*02:01 (Homo sapiens, UniProt P04439, D140Y/D185E/D98H/E176V/E277Q/G131W/G231S/I119V/I121R/I166T/I218V/L300P/L318F/N151K/N90K/P208A/P217A/Q86G/Q94H/R138H/R169H/T345S)
Assay: REVEAL Epitope Discovery System in vitro MHC-peptide binding score
Settings: REVEAL score, positive control peptide set at 100%; greater than 50 = good or high affinity binding
METRIC_NAME: A*02:01 In Vitro Score

# RESIDUE_SEQUENCE, VALUE
measured = [
    ("IIFWVKRGS [9-mer variant junction peptide, R31S]", 13.60),
    ("AFIIFWVSR [9-mer variant junction peptide, K28S]", 4.50),
    ("WVKRGHKKL [9-mer variant junction peptide, R31H]", 3.90),
    ("IIFWVKRGR [9-mer of CD28/4-1BB junction region, mutation none]", 1.70),
    ("FWVKRGNKK [9-mer variant junction peptide, R31N]", 8.70),
]

P = IFWVARGRK [9-mer variant junction peptide, K28A]
Q = IIFWVKRGL [9-mer variant junction peptide, R31L]
Problem: Please let me know which one, P or Q , has a lower measured A*02:01 In Vitro Score value. Which one? Tell me its label.
Result: P

---

Target: HLA-B*08:01 (Homo sapiens, UniProt P01889, A93T/A95T/D138N/E176V/E187T/K202T/Q94N/R180D/S35A/V36M/Y33D/Y91F)
Experiment: REVEAL Epitope Discovery System in vitro MHC-peptide binding score
Design: key: % binding, normalized to positive control peptide set at 100%
Conditions: binding normalized to positive control peptide set at 100%, greater than 50 considered good or high affinity binding
METRIC_NAME: B*08:01 In Vitro Score

# RESIDUE_SEQUENCE, VALUE
data = [
    ("AFIIFWVAR [9-mer variant junction peptide, K28A]", 0.20),
    ("IFWVQRGAK [9-mer variant junction peptide, K28Q/R31A]", 0.20),
    ("IIFWVQRGA [9-mer variant junction peptide, K28Q/R31A]", 0.20),
]

1 = FIIFWVHRG [9-mer variant junction peptide, K28H]
2 = IIFWVLRGR [9-mer variant junction peptide, K28L]
Problem: Please let me know which one, 1 or 2 , has a lower measured B*08:01 In Vitro Score value. Which one? Tell me its label.
Result: 1

---

Biological target: HLA-A*11:01 (Homo sapiens, UniProt P04439, A114D/D185E/E176A/F33Y/L180Q/S129P/T187R)
Test: REVEAL Epitope Discovery System in vitro MHC-peptide binding score
Design: key: % binding, normalized to positive control peptide set at 100%
Conditions: binding normalized to positive control peptide set at 100%, greater than 50 considered good or high affinity binding
METRIC_NAME: A*11:01 In Vitro Score

Some sequences with recorded A*11:01 In Vitro Score:
# RESIDUE_SEQUENCE, METRIC_NAME, VALUE
rows = [
    ("IIFWVARGR [9-mer variant junction peptide, K28A]", "A*11:01 In Vitro Score", 70.60),
    ("WVKRGAKKL [9-mer variant junction peptide, R31A]", "A*11:01 In Vitro Score", 4.60),
    ("IFWVSRGRK [9-mer variant junction peptide, K28S]", "A*11:01 In Vitro Score", 39.20),
    ("WVQRGRKKL [9-mer variant junction peptide, K28Q]", "A*11:01 In Vitro Score", 12.80),
    ("IFWVKRGHK [9-mer variant junction peptide, R31H]", "A*11:01 In Vitro Score", 30.90),
]

1 = AFIIFWVSR [9-mer variant junction peptide, K28S]
2 = IIFWVHRGR [9-mer variant junction peptide, K28H]
Problem: Please let me know which one, 1 or 2 , has a lower measured A*11:01 In Vitro Score value. Which one? Tell me its label.
Result: 1
(1: 54.00, 2: 77.50)

I = IIFWVQRGR [9-mer variant junction peptide, K28Q]
II = WVARGRKKL [9-mer variant junction peptide, K28A]
III = IFWVKRGSK [9-mer variant junction peptide, R31S]
IV = WVKRGHKKL [9-mer variant junction peptide, R31H]
Problem: List these items ordered by A*11:01 In Vitro Score, big to small. Dear reader, please state the labels in the requested order.
Result: I, III, II, IV

I = IIFWVKRGS [9-mer variant junction peptide, R31S]
II = AFIIFWVHR [9-mer variant junction peptide, K28H]
Problem: Which of the two items, I and II , has the greater recorded A*11:01 In Vitro Score? Which one? Tell me its label.
Result: I
(I: 100.00, II: 34.90)

Value source: patent US12139526B2
